Tested on: HOP-62 NSCLC
Assay Notes: NCI-60 one-dose screen, 48 h
Conditions Used: 10 µM unless noted
This is part of a sample that, as a whole, favours compounds with a hit. Of some 83,000 tested, about 20% had one in any assay. Activity calls are given as the source filed them. Rule for the calls: active = growth percent below 10; inactive = the rest.
API: response.call in True = active, False = inactive

NCCNc1nc2ccccc2c2c(=O)c3cccc(F)c3sc12: False
NC(=O)Nc1ccc2ncnc(Nc3ccc(Cl)cc3)c2c1: False
Cc1ccc(NC2=C(Cl)C(=O)c3nc(C)ccc3C2=O)cc1: False

Query: Please state the recorded outcome for this compound: CCOc1cccc(NC2=C(Br)C(=O)C(C)=C(C)C2=O)c1
Response: False

Query: Follow-up entry: NS(=O)(=O)c1ccc(-n2nc(C(=O)N/N=C\c3ccc(F)cc3)cc2-c2ccc(Br)cc2)cc1
Response: False

Query: Follow-up entry: Cc1nc(/N=C(\N)NC(=O)Nc2cccc(Cl)c2)sc1C
Response: False

Query: Follow-up entry: Cc1cc(C)c(-c2c(N)cc(Br)cc2Br)c(N)c1
Response: False

Query: Follow-up entry: COc1cc(CCC[P+](c2ccccc2)(c2ccccc2)c2ccccc2)c(OC)c2c1OCO2
Response: False

Query: Follow-up entry: N#Cc1c(-c2ccc(Cl)cc2)nc(NCCO)[nH]c1=O
Response: False

###

Tested on: MOLT-4 leukemia
Assay Notes: NCI-60 one-dose screen, 48 h (100 = growth as untreated, 0 = no growth, -100 = all killed)
Conditions Used: 10 µM unless noted
This is part of a sample that, as a whole, favours compounds with a hit. Of some 83,000 tested, about 20% had one in any assay.
Readout Kind: growth (%)
Record the value in %, omitting the unit from your answer.

As a guide, the following entries are already answered.
O=C(N/N=C/c1ccc(Cl)cc1)c1ccc(C(F)(F)F)nc1Nc1cccc(C(F)(F)F)c1: 2.2
Cc1cc(O)c(C2=NN(c3ccc(S(N)(=O)=O)cc3)C(/C=C/c3ccccc3)C2)cc1Cl (stereo unspecified): 73.3
O=C1CCC/C=C\C[C@H]2C=CC(=O)/C2=C/C[C@H](CCc2cccc(C(F)(F)F)c2)O1: -18.6
CCCCN(C)N=Nc1ccc(C(N)=O)cc1: 87.7
CCC12CCC[N+]3([O-])CCC4(C(=Nc5ccccc54)C(O)(C(=O)OC)C1)C23 (stereo unspecified): 98.2

Pending compound:
Query: For CCOC(=O)c1sc2ncc(-c3ccc(C)cc3)n2c1C , what is its reported growth?
Response: 90.1

###

System: HCC-2998 colon
Assay Notes: NCI-60 one-dose screen, 48 h
Conditions Used: 10 µM unless noted
Compounds without any hit were thinned out: in the full panel of roughly 83,000, 20% have a hit. Active and inactive are the calls of the source. Rule for the calls: active = growth percent below 10; inactive = the rest.
API: response.call in 1.0 (active), 0.0 (inactive)

COc1ccc2sc3c(NCCCNCCO)nc4ccccc4c3c(=O)c2c1: 1.0
Cc1nc2ccccc2c(/C=C/c2ccccc2)c1C(=O)/C=C/c1ccc(C(F)(F)F)cc1: 1.0
CCc1cccc2c1S/C(=C/c1ccc(Cl)cc1)C2=O: 0.0
CCN(CC)CCNC(=O)c1cn2ncnc(Oc3ccc(NC(=O)Nc4ccc(Cl)c(C(F)(F)F)c4)cc3)c2c1C: 1.0
COc1cc(C(=O)c2cc(C)c3[nH]c4ccc(O)cc4c3c2C)cc(OC)c1OC: 0.0

Query: Please state the recorded outcome for this compound: O=c1c2cc(F)ccc2sc2c(N3CCCCC3)nc3ccccc3c12
Response: 0.0

###

Items are presented alongside their recorded growth.
Tested on: 786-0 renal
Assay Notes: NCI-60 one-dose screen, 48 h (100 = growth as untreated, 0 = no growth, -100 = all killed)
Conditions Used: 10 µM unless noted
Experimental: Cells are grown in 96 well plates and exposed to the test compound for 48 hours. Compounds are tested at a single concentration, which is 10^-5 M for most compounds. The reported endpoint is percent growth (GI% or GIPRCNT), where numbers from 0 - 100% represent growth inhibition, and numbers from -100% - 0 represent cell death. For example, a value of 40 represents 60% growth inhibition. A value of 0 means no net growth occurred over the course of the experiment. […]
This is part of a sample that, as a whole, favours compounds with a hit. Of some 83,000 tested, about 20% had one in any assay.
Record the value in %, omitting the unit from your answer.

As a guide, the following entries are already answered.
Cc1nc2ccccc2n1CC1C(=O)NC(=O)NC1=O: 103
O=C(N/N=C/[C@@H](O)[C@H](O)[C@H](O)CO)c1ccc(NC(=O)c2cccnc2)cc1: 106

Query: For CCCCn1c(=O)c(-c2cc(-c3ccc(Cl)cc3)nc(-c3ccc(Cl)cc3)c2)cc2cc(Cl)ccc21 , what is its reported growth?
Response: 106

###

Tested on: SNB-19 CNS
Assay Notes: NCI-60 one-dose screen, 48 h (100 = growth as untreated, 0 = no growth, -100 = all killed)
Conditions Used: 10 µM unless noted
This is part of a sample that, as a whole, favours compounds with a hit. Of some 83,000 tested, about 20% had one in any assay.
Label label 0 if growth falls below 80%; label label 1 in every other case.

O=C(Nc1ccc(OS(=O)(=O)c2ccc(F)cc2)cc1)c1ccc(Cl)cc1: label 1
Brc1c[n+](Cc2ccc3ccccc3c2)cn1Cc1ccc2ccccc2c1: label 0
CNCCCNc1nc2ccccc2c2c(=O)c3cc(F)ccc3sc12: label 0
CCc1ccc2nc(NC(=O)Cc3csc(NC(=O)c4ccco4)n3)sc2c1: label 0
CCCCCCn1c(-c2ccc(C(=O)O/N=C(\N)c3ccc4c(c3)OCO4)cc2)nc(-c2ccccc2)c1-c1ccccc1: label 0
Cc1cc2[nH]c(=O)c3c4ncccc4cn3c2cc1C: label 0

Query: Hi, just wondering whether CCOC(=O)c1sc2ncc(-c3ccc(C)cc3)n2c1C shows growth of 80% or higher.
Response: label 1

Query: Follow-up entry: Cc1[nH]c(C(=O)Nc2ccc(C(=O)NCCN)cc2OC(C)C)c(Cl)c1Cl
Response: label 0

Query: Follow-up entry: COc1ccc2nc(NCCCNCCO)c3sc4ccc(F)cc4c(=O)c3c2c1
Response: label 0

Query: Follow-up entry: COc1ccc(C(=O)C(C)C)c2ccccc12
Response: label 1

Query: Follow-up entry: COc1ccc(C(Cc2ccccc2)NCCN2CCOCC2)cc1 (stereo not drawn)
Response: label 1

Query: Follow-up entry: COc1ccc2sc3c(NCCCNCCO)nc4ccccc4c3c(=O)c2c1
Response: label 0

Query: Follow-up entry: c1ccc2cc(C[n+]3ccn(CCCCCCn4cc[n+](Cc5ccc6ccccc6c5)c4)c3)ccc2c1
Response: label 0

Query: Follow-up entry: COc1ccc2c(c1)/C(=C/c1sc(=S)n(Cc3ccco3)c1O)C=N2
Response: label 0

Query: Follow-up entry: CCCCNc1nc(NN2C(=O)c3cccc4cccc(c34)C2=O)nc(-n2cnc3ccccc32)n1
Response: label 1

Query: Follow-up entry: C=C(C)[C@@H]1CC[C@]2(N=C=O)CC[C@]3(C)[C@H](CC[C@@H]4[C@@]5(C)Cc6c([nH]c7ccccc67)C(C)(C)[C@@H]5CC[C@]43C)[C@@H]12
Response: label 1

Query: Follow-up entry: CC(=O)OC[C@H]1OC(Sc2sc(C(=O)c3ccc(Br)cc3)c(N)c2-c2nc3ccccc3s2)[C@H](OC(C)=O)[C@@H](OC(C)=O)[C@H]1OC(C)=O (stereo partly drawn)
Response: label 1

Query: Follow-up entry: CC([C@H]1CCC2C3CCC4C[C@@H](NC=O)CC[C@]4(C)C3CC[C@@]21C)N(C)C (stereo partly drawn)
Response: label 0

Query: Follow-up entry: CCc1cccc2c1S/C(=C/c1ccc(OC)cc1)C2=O
Response: label 0

###

System: HCT-116 colon
Assay Notes: NCI-60 one-dose screen, 48 h
Conditions Used: 10 µM unless noted
About 83,000 compounds went through this panel and 20% of them were active in at least one assay; those are over-represented in the sample as a whole. The source made the active and inactive calls. How the source made its calls: active means growth percent below 10; inactive means the rest.
API: response.call in class 1 for active, class 0 for inactive

NC(=O)C1(Nc2ccc(Br)cc2)CCCC1: class 0
CC(=O)CC[C@H]1C(=O)N[C@@H](C(C)C)C(=O)N[C@@H](Cc2cc(O)cc(F)c2)C(=O)N2CCC[C@H](N2)C(=O)O[C@H](/C(C)=C/C=C/C(=O)OC(C)(C)C)C/C=C/C=C/[C@H](O)[C@H](C)[C@H]1O: class 0

Query: Please state the recorded outcome for this compound: C#C[C@]1(O)CC[C@H]2[C@@H]3CC=C4c5sc(Nc6cc(F)ccc6F)nc5CC[C@]4(C)[C@H]3CC[C@@]21C
Response: class 1

Query: Follow-up entry: O=c1[nH]c2c(ccc3cnccc32)c2c1CCC2
Response: class 1

###

Test system: MDA-MB-435 melanoma
Assay Notes: NCI-60 one-dose screen, 48 h (100 = growth as untreated, 0 = no growth, -100 = all killed)
Conditions Used: 10 µM unless noted
Compounds without any hit were thinned out: in the full panel of roughly 83,000, 20% have a hit.
Readout Kind: growth (%)
Record the value in %, omitting the unit from your answer.

As a guide, the following entries are already answered.
Cc1cc(=O)oc2cc(OC(=O)CN3CCN(C)CC3)ccc12: 100
O=CN(SSN(C=O)C1CCCCC1)C1CCCCC1: 110
CNCCCC12CCC(c3ccccc31)c1ccccc12: 78.9
NCCCNc1nc2ccccc2c2c(=O)c3cc(F)cc(F)c3sc12: -91.2

Pending compound:
Query: Write down the reported growth of COc1ccc(-c2csc(NC(=O)N3CCN(c4cc5c(cc4F)c(=O)c(C(=O)O)cn5C4CC4)CC3)n2)cc1 , test system: MDA-MB-435 melanoma.
Response: 3.67
